tested on: 786-0 renal; test: NCI tumour cell line growth inhibition, 48 h; in the data active = GI50 below about 0.43 µM; inactive = the rest
Outcomes: 1 (yes) = active, 0 (no) = inactive

{"Compound": "CCS(=O)(=O)c1ccc(OC)c(Nc2ncc(-c3cccc(OC)c3)o2)c1", "Class": "0 (no)"}
{"Compound": "O=C(Nc1ccc(Cl)cc1)c1cc(-c2ccc(F)cc2)c2sc(=O)[nH]c2n1", "Class": "0 (no)"}
{"Compound": "CCOC(=O)c1cc(/C(=N\\O)c2cc(OC)c(OC)c(OC)c2)n2cc(C)cc(C)c12", "Class": "0 (no)"}
{"Compound": "COc1cc(OC)c(/C=C/C(=O)c2c(OC)cccc2OC)c(OC)c1", "Class": "0 (no)"}
{"Compound": "COc1cc(NC(=O)c2cc(O)c(CC=C(C)C)c(O)c2)cc2c1O[C@]1(C)CC[C@@H](O)C(C)(C)[C@H]1C2", "Class": "0 (no)"}
{"Compound": "CCC#CC[C@H]1C/C=C2/C(=O)C=C[C@@H]2C/C=C\\CCCC(=O)O1", "Class": "0 (no)"}
{"Compound": "CC1CN1CC(O)C(O)CN1CC1C (centres undefined)", "Class": "0 (no)"}
{"Compound": "CCN(CC)CCN1CC(O)=C(c2nc(-c3ccc(Cl)cc3)cs2)C1=N", "Class": "0 (no)"}
{"Compound": "COC(=O)Nc1nc2ccc(Oc3ccc(NC(=O)Nc4ccccc4)cc3)cc2[nH]1", "Class": "1 (yes)"}

* * *

Listing of recorded TGI by entry.
test system: 786-0 renal; assay: NCI tumour cell line growth inhibition, 48 h

{"Compound": "C[C@]12CC[C@H]3[C@@H](CCC4=CC(=O)CC[C@@H]43)[C@@H]1CC[C@]2(O)C(N)=O", "Assay system": "786-0 renal", "TGI": "> 100 µM"}
{"Compound": "COc1ccc(C(=O)c2cc(C)c(OC)c(C)c2)c(OC)c1N(C(=O)C(Cl)Cl)C(=O)C(Cl)Cl", "Assay system": "786-0 renal", "TGI": "> 100 µM"}
{"Compound": "CC(=O)OC1CC(O)C23COC(O)C1(C)C2CC(O)C1(C)C3C(=O)C(O)C2(C)C(c3ccoc3)CC3OC321 (centres undefined)", "Assay system": "786-0 renal", "TGI": "> 64.2 µM"}
{"Compound": "CC[C@@]1(O)C(=O)OCc2c1cc1n(c2=O)Cc2c-1nc1ccccc1c2/C=N\\NC(=O)C[n+]1ccccc1", "Assay system": "786-0 renal", "TGI": "> 27.8 µM"}

* * *

tested on: DU-145 prostate; assay: NCI tumour cell line growth inhibition, 48 h; in the data active = GI50 below about 0.43 µM; inactive = the rest
Outcomes: active, inactive

{"Compound": "NC(=S)N/N=C/c1ccc(OC(=O)COc2ccc(Cl)cc2)cn1", "Class": "inactive"}
{"Compound": "CCN(CC)c1sc(N(CC)CC)c2c1SSSSS2", "Class": "inactive"}
{"Compound": "COC(=O)Nc1nc2ccc(Oc3ccc(NC(=O)Nc4ccccc4)cc3)cc2[nH]1", "Class": "active"}
{"Compound": "CCC#CC[C@H]1C/C=C2/C(=O)C=C[C@@H]2C/C=C\\CCCC(=O)O1", "Class": "inactive"}
{"Compound": "CCOC(=O)Sc1ncnc2nc[nH]c12", "Class": "inactive"}
{"Compound": "Clc1nc(Cl)c2ncn(Cc3cccc(COc4cccc(OCc5cccc(Cn6cnc7c(Cl)nc(Cl)nc76)c5)c4)c3)c2n1", "Class": "inactive"}
{"Compound": "CC(=O)OC1Oc2ccccc2-c2oc(=O)c(-c3cc4ccc(N(C)C)cc4oc3=O)cc21 (stereo not given)", "Class": "inactive"}
{"Compound": "CCN(CC)CCN1CC(O)=C(c2nc(-c3ccc(Cl)cc3)cs2)C1=N", "Class": "inactive"}
{"Compound": "Cc1cn2c(/C=C3/C(=O)N(C)c4ccccc43)c(C)nc2s1", "Class": "inactive"}
{"Compound": "O=C(CCl)Nc1ccc(Cl)cc1", "Class": "inactive"}
